SYSTEM: T1, cynomolgus monkey IgE CH3-CH4 (cynomolgus monkey)
T1 construct: domain: CH3-CH4; Custom protein; also called Biotin -cyno IgE CH3-CH4; Biotin-cyno IgE
TEST_PROTOCOL: BLI (Octet), method of Example 2, biotinylated cynomolgus IgE CH3-CH4
READOUT_KIND: Kd (nM)

[[record]]
binder = "AB1904Am5 (antibody, V domains shown, IgG1 format) VH: EVQLVESGGGLVQPGGSLRLSCAVSGYSITSGYSWNWVRQAPGKGLEWVSVITYAGSTNYADSVKGRFTISRDDSKNTFYLQMNSLRAEDTAVYYCARGSHYFGHWHFAVWGQGTLVTVSS VL: DIQLTQSPSSLSASVGDRVTITCRASQSVDDEYDSYMNWYQQKPGKAPKLLIYAASYLQSGVPSRFSGSGSGTDFTLTISSLQPEDFATYYCQQSHEDPYTFGQGTKLEIK"
reported_measurement = 0.15

